# Test system: Zea mays
# protocol-description: Pre-emergence herbicidal effect and crop plant compatibility
# Type: in vivo
# condition: 80 g/ha, 3 weeks
Kindly state ZEAMX herbicidal activity in percent for each of the entries shown.
Just the number please, in %, no unit attached.

So what's the measured ZEAMX herbicidal activity in percent for this one? O=C1CCCc2nc(N[C@@H]3CCCc4c(F)cccc43)ncc21 0

So what's the measured ZEAMX herbicidal activity in percent for this one? CC(=O)c1cnc(N[C@@H]2CCCc3cc(F)ccc32)nc1C 0

So what's the measured ZEAMX herbicidal activity in percent for this one? CC(C)C1CC(=O)c2cnc(N[C@@H]3CCCc4ccccc43)nc2C1 (stereo partly drawn) 0
